Hello, the source for this data is patent US12371454B2, in case you need it.

Please respond with reported log10 IC50 for every item in the list.
- subject_of_test: Kras and SOS1 (biotin-tagged human Kras loaded with GDP, His-tagged human SOS1) (Homo sapiens, UniProt P01116, G12D)
- Construct: made in house; host or cells: E. coli (stated for Kras only)
- Sequence (P01116 1-188 isoform P01116-2 G12D): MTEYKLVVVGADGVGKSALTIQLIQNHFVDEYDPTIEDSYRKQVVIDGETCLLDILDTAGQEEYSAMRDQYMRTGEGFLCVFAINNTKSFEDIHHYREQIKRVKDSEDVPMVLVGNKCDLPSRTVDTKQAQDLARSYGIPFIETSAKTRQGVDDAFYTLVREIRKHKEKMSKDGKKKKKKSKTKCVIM
- experiment_notes: Protein-protein interaction inhibition between Kras and SOS1 (KrasGl2D-SOS PPI) using AlphaScreen
- Format: binding
- settings: AlphaScreen; biotin-tagged human Kras loaded with GDP, His-tagged human SOS1; read-out: KRAS G12D-SOS PPI IC50
Positions of bridges follow the written chain, without caps; N, C: chain ends. Non-standard residues stand in square brackets, D forms with d. Residues, ends and D or L forms follow the SMILES beside them. *: point of attachment. hPhe(3-Cl-4-CF3) = N[C@@H](CCc1ccc(C(F)(F)F)c(Cl)c1)C(=O)O; hPhe(4-CF3) = N[C@@H](CCc1ccc(C(F)(F)F)cc1)C(=O)O; NMePhe(4-Cl) = CN[C@@H](Cc1ccc(Cl)cc1)C(=O)O; NMeGly(cBu) = CN[C@H](C(=O)O)C1CCC1; NMeCha = CN[C@@H](CC1CCCCC1)C(=O)O; NMeChg = CN[C@H](C(=O)O)C1CCCCC1; NMeD = CN[C@@H](CC(=O)O)C(=O)O; NMeL = CN[C@@H](CC(C)C)C(=O)O; NMeV = CN[C@H](C(=O)O)C(C)C; d(β3hA) = C[C@@H](N)CC(=O)O; NMeAbu = CC[C@H](NC)C(=O)O; NMeS = CN[C@@H](CO)C(=O)O; NPhGly = O=C(O)CNc1ccccc1; NMeA = CN[C@@H](C)C(=O)O; NMeAib = CNC(C)(C)C(=O)O; Piperidide = C1CCN(*)CC1; Pyrrolidide = C1CCN(*)C1; dNMeA = CN[C@H](C)C(=O)O; Ac5c = NC1(C(=O)O)CCCC1; Aze = O=C(O)[C@@H]1CCN1; Sar = CNCC(=O)O; Propyl = CCC*
Form field - Quantity: IC50; Unit: nM; Scale: log10

## Input Field request: log10 IC50 | item: CCCOC[C@H]1C(=O)N[C@@H]([C@@H](C)CC)C(=O)N(C)CC(=O)N(C)CC(=O)N(C)[C@@H](CC2CCCCC2)C(=O)N(C)CC(=O)N[C@@H](CCc2ccc(C(F)(F)F)c(Cl)c2)C(=O)N2CCC[C@H]2C(=O)NC2(CCCC2)C(=O)N(C)[C@@H](C2CCCCC2)C(=O)N(C)[C@H](C(=O)N2CCCCC2)CC(=O)N1C [Compound 1668] ([NMeS](Propyl)I[Sar][Sar][NMeCha][Sar][hPhe(3-Cl-4-CF3)]P[Ac5c][NMeChg][NMeD]-Piperidide; lactam N-11)
## Output -0.07

## Input Tell me the measured log10 IC50 of CC[C@H](C)[C@@H]1NC(=O)[C@H](CC)N(C)C(=O)C[C@@H](C(=O)N2CCCCC2)N(C)C(=O)[C@H](C2CCCCC2)N(C)C(=O)C2(CCCC2)NC(=O)[C@@H]2CCCN2C(=O)[C@H](CCc2ccc(C(F)(F)F)c(Cl)c2)NC(=O)CN(C)C(=O)[C@H](CC2CCCCC2)N(C)C(=O)CN(C)C(=O)CN(C)C1=O [Compound 1770] ([NMeAbu]I[Sar][Sar][NMeCha][Sar][hPhe(3-Cl-4-CF3)]P[Ac5c][NMeChg][NMeD]-Piperidide; lactam N-11) , please.
## Output -0.15

## Input For the compound CC[C@H](C)[C@@H]1NC(=O)[C@H](C)N(C)C(=O)C[C@@H](C)NC(=O)[C@H](C(C)C)N(C)C(=O)C2(CCCC2)NC(=O)[C@@H]2CCCN2C(=O)[C@H](CCc2ccc(C(F)(F)F)c(Cl)c2)NC(=O)[C@@H](C)N(C)C(=O)[C@H](CC2CCCCC2)N(C)C(=O)CN(C)C(=O)CN(C)C1=O [Compound 773] (cyclo([Ac5c][NMeV][d(β3hA)][NMeA]I[Sar][Sar][NMeCha][dNMeA][hPhe(3-Cl-4-CF3)]P)) , what log10 IC50 is on record?
## Output 2.15

## Input GET /values?readout=log10 IC50&item= CC[C@H](C)[C@@H]1NC(=O)[C@H](C)N(C)C(=O)C[C@@H](C(=O)N2CCCC2)NC(=O)[C@H](CC(C)C)N(C)C(=O)[C@H](CC(C)C)N(C)C(=O)[C@H](CC(C)C)NC(=O)[C@H](CCc2ccc(C(F)(F)F)cc2)NC(=O)CN(C)C(=O)[C@H](Cc2ccc(Cl)cc2)N(C)C(=O)CN(C)C(=O)CN(C)C1=O [Compound 46] ([NMeA]I[Sar][Sar][NMePhe(4-Cl)][Sar][hPhe(4-CF3)]L[NMeL][NMeL]D-Pyrrolidide; lactam N-11)
## Output 2.08

## Input Item CC[C@H](C)[C@@H]1NC(=O)[C@H](C)N(C)C(=O)C[C@@H](C(=O)N2CCCCC2)N(C)C(=O)[C@H](C2CCC2)N(C)C(=O)C(C)(C)N(C)C(=O)CN(c2ccccc2)C(=O)[C@H](CCc2ccc(C(F)(F)F)c(Cl)c2)NC(=O)CN(C)C(=O)[C@H](C2CCC2)N(C)C(=O)[C@@H]2CCN2C(=O)[C@H](C)N(C)C1=O [Compound 2144] ([NMeA]I[NMeA][Aze][NMeGly(cBu)][Sar][hPhe(3-Cl-4-CF3)][NPhGly][NMeAib][NMeGly(cBu)][NMeD]-Piperidide; lactam N-11) has what recorded log10 IC50?
## Output 0.84

###

Exercise: for every item that follows, state its recorded pIC50.
- subject_of_test: Kras and SOS1 (biotin-tagged human Kras loaded with GDP, His-tagged human SOS1) (Homo sapiens, UniProt P01116, G12D)
- Construct: made in house; host or cells: E. coli (stated for Kras only)
- experiment_notes: Protein-protein interaction inhibition between Kras and SOS1 (KrasGl2D-SOS PPI) using AlphaScreen
- Assay type: binding
- settings: AlphaScreen; biotin-tagged human Kras loaded with GDP, His-tagged human SOS1; read-out: KRAS G12D-SOS PPI IC50
Starred links: 1 amine or outer side, 2 acyl side, 3 side chain; linkers in the order of their positions; H or OH if unused. Positions of bridges follow the written chain, without caps; N, C: chain ends. Non-standard residues stand in square brackets, D forms with d. Residues, ends and D or L forms follow the SMILES beside them. *: point of attachment. hPhe(3-Cl-4-CF3) = N[C@@H](CCc1ccc(C(F)(F)F)c(Cl)c1)C(=O)O; NMeAbu(4,4,4-F3) = CN[C@@H](CC(F)(F)F)C(=O)O; Pro(4,4-F2) = O=C(O)[C@@H]1CC(F)(F)CN1; NMe4Pal = CN[C@@H](Cc1ccncc1)C(=O)O; NMeCha = CN[C@@H](CC1CCCCC1)C(=O)O; X2 = C=CC[C@](C)(N[*:1])C(=O)[*:2]; NMeChg = CN[C@H](C(=O)O)C1CCCCC1; NMeD = CN[C@@H](CC(=O)O)C(=O)O; NMeL = CN[C@@H](CC(C)C)C(=O)O; NMeV = CN[C@H](C(=O)O)C(C)C; NMeS = CN[C@@H](CO)C(=O)O; Piperidide = C1CCN(*)CC1; Pyrrolidide = C1CCN(*)C1; Ac5c = NC1(C(=O)O)CCCC1; Aze = O=C(O)[C@@H]1CCN1; Sar = CNCC(=O)O; Propyl = CCC*
pIC50 here: minus log base 10 of the concentration, concentration in moles per litre.

## Input Quick check: pIC50 of CC[C@H](C)[C@@H]1NC(=O)[C@H](CC(C)C)N(C)C(=O)C[C@@H](C(=O)N2CCCCC2)N(C)C(=O)[C@H](C2CCCCC2)N(C)C(=O)C2(CCCC2)NC(=O)[C@@H]2CCCN2C(=O)[C@H](CCc2ccc(C(F)(F)F)c(Cl)c2)NC(=O)CN(C)C(=O)[C@H](COC)N(C)C(=O)CN(C)C(=O)CN(C)C1=O [Compound 623] ([NMeL]I[Sar][Sar][NMeS](Me)[Sar][hPhe(3-Cl-4-CF3)]P[Ac5c][NMeChg][NMeD]-Piperidide; lactam N-11) ?
## Output 8.74

## Input Need pIC50, item CCCOC[C@@H]1NC(=O)[C@H](CC(C)C)N(C)C(=O)C[C@@H](C(=O)N2CCCCC2)N(C)C(=O)[C@H](C2CCCCC2)N(C)C(=O)C2(CCCC2)NC(=O)[C@@H]2CCCN2C(=O)[C@H](CCc2ccc(C(F)(F)F)c(Cl)c2)NC(=O)CN(C)C(=O)[C@H](CC2CCCCC2)N(C)C(=O)CN(C)C(=O)CN(C)C1=O [Compound 1736] ([NMeL]S(Propyl)[Sar][Sar][NMeCha][Sar][hPhe(3-Cl-4-CF3)]P[Ac5c][NMeChg][NMeD]-Piperidide; lactam N-11)
## Output 8.37

## Input // lookup pIC50 for C=CC[C@]1(C)NC(=O)[C@@H]2CCCN2C(=O)[C@H](CCc2ccc(C(F)(F)F)c(Cl)c2)NC(=O)CN(C)C(=O)[C@H](CC2CCCCC2)N(C)C(=O)CN(C)C(=O)CN(C)C(=O)[C@H]([C@@H](C)CC)NC(=O)[C@H](CC(C)C)N(C)C(=O)C[C@@H](C(=O)N2CCCCC2)N(C)C(=O)[C@H](C(C)C)N(C)C1=O [Compound 1109] ([NMeL]I[Sar][Sar][NMeCha][Sar][hPhe(3-Cl-4-CF3)]P[X2][NMeV][NMeD]-Piperidide; lactam N-11)
## Output 7.64

## Input Param item = CC[C@H](C)[C@@H]1NC(=O)[C@H](CC(F)(F)F)N(C)C(=O)C[C@@H](C(=O)N2CCCC2)N(C)C(=O)[C@H](C2CCCCC2)N(C)C(=O)C2(CCCC2)NC(=O)[C@@H]2CC(F)(F)CN2C(=O)[C@H](CCc2ccc(C(F)(F)F)c(Cl)c2)NC(=O)CN(C)C(=O)[C@H](CC2CCCCC2)N(C)C(=O)CN(C)C(=O)CN(C)C1=O [Compound 1357] ([NMeAbu(4,4,4-F3)]I[Sar][Sar][NMeCha][Sar][hPhe(3-Cl-4-CF3)][Pro(4,4-F2)][Ac5c][NMeChg][NMeD]-Pyrrolidide; lactam N-11) ; retrieve measured pIC50.
## Output 9.28

## Input Entry CC[C@H](C)[C@@H]1NC(=O)[C@H](CC(C)C)N(C)C(=O)C[C@@H](C(=O)N2CCCCC2)N(C)C(=O)[C@H](C2CCCCC2)N(C)C(=O)C2(CCCC2)NC(=O)[C@H](Cc2ccncc2)N(C)C(=O)[C@H](CCc2ccc(C(F)(F)F)c(Cl)c2)NC(=O)CN(C)C(=O)[C@H](CC2CCCCC2)N(C)C(=O)[C@@H]2CCN2C(=O)CN(C)C1=O [Compound 480] ([NMeL]I[Sar][Aze][NMeCha][Sar][hPhe(3-Cl-4-CF3)][NMe4Pal][Ac5c][NMeChg][NMeD]-Piperidide; lactam N-11) has what pIC50?
## Output 8.85
